Ref: the RNAGym collection of RNA variant scans (doi:10.7554/elife.80360)

B1: HDV Ribozyme (parent)
chain: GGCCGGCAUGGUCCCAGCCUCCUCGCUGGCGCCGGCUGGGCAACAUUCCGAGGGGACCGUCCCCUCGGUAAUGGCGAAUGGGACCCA

Variants of: B1
assay_protocol: self-cleavage, relative activity (ratio to wild type); higher = more cleavage; co-transcriptional
Where self-cleavage equals or exceeds 0.5, the correct label is criterion met; where it does not, the label is criterion not met.

Worked cases, answers included:
C19A U69G : criterion not met
U27C U47G : criterion met
U37G U79G : criterion not met
C61A C66U : criterion met
C4G G31U : criterion not met

Qu. Evaluate C32A U37A : self-cleavage at minimum 0.5?
Ans. criterion not met

Qu. Evaluate C14A G55C : self-cleavage at minimum 0.5?
Ans. criterion met
